Here, compounds appear alongside Ki reported for the protein given by its sequence in the literature.
Target sequence: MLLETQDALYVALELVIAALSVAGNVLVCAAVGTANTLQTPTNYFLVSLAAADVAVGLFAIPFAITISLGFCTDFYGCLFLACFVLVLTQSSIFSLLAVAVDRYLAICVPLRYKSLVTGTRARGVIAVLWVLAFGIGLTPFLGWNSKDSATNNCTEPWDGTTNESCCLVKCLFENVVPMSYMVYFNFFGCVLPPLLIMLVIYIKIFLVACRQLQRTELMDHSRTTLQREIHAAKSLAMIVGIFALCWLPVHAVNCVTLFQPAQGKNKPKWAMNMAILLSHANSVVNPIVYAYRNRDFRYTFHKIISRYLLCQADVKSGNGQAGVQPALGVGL
Threshold-based label: Ki under 80 nM gives label 1, Ki not under 80 nM gives label 0.

> print(dat)
                            compound.smiles  assigned.category
1    CCC(=O)Nc1cc(-c2ccccc2)nc(-c2ccccc2)n1            label 1
2  CCCn1c(=O)c2[nH]c(-c3cnn(Cc4ccc(C)cc4)c3)nc2n(CCC)c1=O            label 1
3  [O-][n+]1cccc(Nc2ncc(-c3ccncn3)c(-c3ccco3)n2)c1            label 1
4  CCCn1c(=O)c2nc([C@]34CC[C@](CCCC(=O)O)(CC3)CC4)[nH]c2n(CCC)c1=O            label 0
5  CCC(=O)Nc1nc(-c2ccc(SC)cc2)cc(-c2ccc(SC)cc2)n1            label 0
